Origin of values: ChEMBL document CHEMBL1961873

- targetOfAssay: Mast/stem cell growth factor receptor Kit (Homo sapiens) (UniProt P10721);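 note: values given as mean inhibition of KIT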
- Sequence (P10721 whole entry): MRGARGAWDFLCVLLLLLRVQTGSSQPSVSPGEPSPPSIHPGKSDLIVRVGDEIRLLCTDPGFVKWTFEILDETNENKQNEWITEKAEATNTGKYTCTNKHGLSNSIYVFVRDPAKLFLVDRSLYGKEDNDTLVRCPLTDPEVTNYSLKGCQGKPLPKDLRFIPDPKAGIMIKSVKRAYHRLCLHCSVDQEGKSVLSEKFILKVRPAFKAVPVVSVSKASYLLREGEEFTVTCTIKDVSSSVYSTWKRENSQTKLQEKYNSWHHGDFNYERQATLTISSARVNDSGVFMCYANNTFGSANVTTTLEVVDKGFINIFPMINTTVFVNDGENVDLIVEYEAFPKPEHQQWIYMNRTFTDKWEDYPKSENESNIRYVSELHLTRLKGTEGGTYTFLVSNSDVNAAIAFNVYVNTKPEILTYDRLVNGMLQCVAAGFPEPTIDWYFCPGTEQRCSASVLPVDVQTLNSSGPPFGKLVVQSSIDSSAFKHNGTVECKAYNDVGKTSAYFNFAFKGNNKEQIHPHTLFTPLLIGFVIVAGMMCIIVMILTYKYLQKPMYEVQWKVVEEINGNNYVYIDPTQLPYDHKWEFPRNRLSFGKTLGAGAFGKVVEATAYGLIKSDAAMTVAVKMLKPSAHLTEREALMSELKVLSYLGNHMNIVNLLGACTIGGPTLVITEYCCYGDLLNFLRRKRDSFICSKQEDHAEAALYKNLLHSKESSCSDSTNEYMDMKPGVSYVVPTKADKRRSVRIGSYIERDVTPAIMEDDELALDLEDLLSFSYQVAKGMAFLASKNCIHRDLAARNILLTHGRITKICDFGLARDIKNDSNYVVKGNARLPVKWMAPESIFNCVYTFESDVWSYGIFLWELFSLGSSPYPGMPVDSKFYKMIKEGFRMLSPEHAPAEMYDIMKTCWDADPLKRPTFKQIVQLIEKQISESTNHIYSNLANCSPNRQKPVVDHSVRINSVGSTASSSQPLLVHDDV
- testSettings: at 1 µM
Hi there, I'd appreciate the recorded inhibition for every entry that follows.
Write down the numeric answer in % and omit the unit.

For Cc1nc(-c2ccccc2)n2nc(NCCCN3CCOCC3)ncc12 the compound record lists inhibition as 8.46

For CN(C)C(=O)O[C@H]1CN[C@H](C#Cc2cc3ncnc(Nc4ccc(OCc5cccc(F)c5)c(Cl)c4)c3s2)C1 the compound record lists inhibition as 3

For C[C@@H](Oc1cc(-n2cnc3ccc(OC[C@@H](O)CO)cc32)sc1C(N)=O)c1ccccc1Cl the compound record lists inhibition as 4.68

For Oc1cccc(-c2nc(-c3ccccc3)[nH]c2-c2ccncc2)c1 the compound record lists inhibition as 8.38

For COC(=O)c1ccc2c(c1)C(=Cc1cc(Br)c(O)c(Br)c1)C(=O)N2 the compound record lists inhibition as 16.2

For NS(=O)(=O)c1ccc(-c2cc3ccncc3cc2OCc2ccccc2)cc1 the compound record lists inhibition as 8.06

For CN(c1ccc(NC(=O)Nc2ccc(OC(F)(F)F)cc2)cc1)c1ccnc(Nc2cccc(S(N)(=O)=O)c2)n1 the compound record lists inhibition as 95.3
